biological target: memapsin 2 (Homo sapiens)
Sequence (P56817 46-501): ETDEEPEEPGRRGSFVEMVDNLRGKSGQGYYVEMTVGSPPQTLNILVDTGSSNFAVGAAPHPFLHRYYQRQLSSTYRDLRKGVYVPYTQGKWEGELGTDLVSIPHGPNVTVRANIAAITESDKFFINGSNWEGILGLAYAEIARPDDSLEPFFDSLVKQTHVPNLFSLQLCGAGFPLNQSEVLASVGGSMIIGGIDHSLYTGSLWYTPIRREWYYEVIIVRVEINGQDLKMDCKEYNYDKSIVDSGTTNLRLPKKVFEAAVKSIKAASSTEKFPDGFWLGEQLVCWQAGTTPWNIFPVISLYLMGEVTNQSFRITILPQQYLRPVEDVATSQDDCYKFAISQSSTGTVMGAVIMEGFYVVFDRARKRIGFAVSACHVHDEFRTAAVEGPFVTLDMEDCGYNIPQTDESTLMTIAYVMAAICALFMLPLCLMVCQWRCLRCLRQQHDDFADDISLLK
Test Readout: Ki

Solved entries (count: 5):
Q: Write Ki of `Cc1nc(COC(=O)N[C@@H](CS(C)(=O)=O)C(=O)N[C@H](CC(C)C)[C@@H](O)C[C@@H](C)C(=O)N[C@@H](C(=O)NCC(C)C)C(C)C)cs1` ; system used: memapsin 2 (Homo sapiens)
Ans: 100 to 1000 nM

Q: Give memapsin 2 (Homo sapiens) Ki for the following compound: `CSC[C@H](NC(=O)OCc1csc(C)n1)C(=O)N[C@H](CC(C)C)[C@@H](O)C[C@@H](C)C(=O)N[C@@H](C(=O)NCC(C)C)C(C)C`
Ans: 100 to 1000 nM

Q: Provide Ki, system memapsin 2 (Homo sapiens), entry CSC[C@H](NC(=O)[C@@H](C)Cc1nc(C)cs1)C(=O)N[C@H](CC(C)C)[C@@H](O)C[C@@H](C)C(=O)N[C@@H](C(=O)NCC(C)C)C(C)C [Structure 64]
Ans: 100 to 1000 nM

Q: Answer briefly: Ki recorded on memapsin 2 (Homo sapiens) for `CSC[C@H](NC(=O)OCc1coc(C)n1)C(=O)N[C@H](CC(C)C)[C@@H](O)C[C@@H](C)C(=O)N[C@@H](C(=O)NCC(C)C)C(C)C`
Ans: 100 to 1000 nM

Q: # lookup: memapsin 2 (Homo sapiens) Ki, key = `CCSC[C@H](NC(=O)OCc1nc(C)cs1)C(=O)N[C@H](CC(C)C)[C@@H](O)C[C@@H](C)C(=O)N[C@@H](C(=O)NCC(C)C)C(C)C`
Ans: < 100 nM

New cases:
Q: Would you please give the reported Ki of `Cc1nc(COC(=O)N[C@@H](CS(=O)(=O)C(C)C)C(=O)N[C@H](CC(C)C)[C@@H](O)C[C@@H](C)C(=O)N[C@@H](C(=O)NCC(C)C)C(C)C)c(C)o1` with memapsin 2 (Homo sapiens)?
Ans: < 100 nM

Q: Tell me its Ki on memapsin 2 (Homo sapiens): CSC[C@H](NC(=O)CC(C)n1nc(C)cc1C)C(=O)N[C@@H](CC(C)C)[C@@H](O)C[C@@H](C)C(=O)N[C@H](C(=O)NCC(C)C)C(C)C (some centres unmarked)
Ans: > 1000 nM

Q: State recorded Ki with memapsin 2 (Homo sapiens), entry Cc1csc(CC(C)C(=O)N[C@@H](CS(C)(=O)=O)C(=O)N[C@H](CC(C)C)[C@@H](O)C[C@@H](C)C(=O)N[C@@H](C(=O)NCC(C)C)C(C)C)n1 (some centres unmarked) , no comment.
Ans: < 100 nM

Q: Write down measured Ki (memapsin 2 (Homo sapiens)) for this compound. `Cc1csc(COC(=O)N[C@@H](CS(C)(=O)=O)C(=O)N[C@H](Cc2ccccc2)[C@@H](O)C[C@@H](C)C(=O)N[C@@H](C(=O)NCC(C)C)C(C)C)n1`
Ans: < 100 nM

Q: Name the value of Ki reported for `Cc1csc(COC(=O)N[C@@H](CS(=O)(=O)C2CCCC2)C(=O)N[C@H](CC(C)C)[C@@H](O)C[C@@H](C)C(=O)N[C@@H](C(=O)NCC(C)C)C(C)C)n1` when tested on memapsin 2 (Homo sapiens).
Ans: < 100 nM

Q: State Ki (memapsin 2 (Homo sapiens)) of `CCc1nc(COC(=O)N[C@@H](CS(C)(=O)=O)C(=O)N[C@H](CC(C)C)[C@@H](O)C[C@@H](C)C(=O)N[C@@H](C(=O)NCC(C)C)C(C)C)c(C)o1` .
Ans: < 100 nM

###

molecular target: Cathepsin D (Homo sapiens, UniProt P07339); experiment: Inhibition of cathepsin D activity (substrate peptide […], MALDI-TOF); assay type: biochemical; details: pH 4.1, 37 degrees C., substrate NH3-[…]-CO2, MALDI-TOF; read-out: Cath D Ki
Sequence (P07339 65-412, species assumed): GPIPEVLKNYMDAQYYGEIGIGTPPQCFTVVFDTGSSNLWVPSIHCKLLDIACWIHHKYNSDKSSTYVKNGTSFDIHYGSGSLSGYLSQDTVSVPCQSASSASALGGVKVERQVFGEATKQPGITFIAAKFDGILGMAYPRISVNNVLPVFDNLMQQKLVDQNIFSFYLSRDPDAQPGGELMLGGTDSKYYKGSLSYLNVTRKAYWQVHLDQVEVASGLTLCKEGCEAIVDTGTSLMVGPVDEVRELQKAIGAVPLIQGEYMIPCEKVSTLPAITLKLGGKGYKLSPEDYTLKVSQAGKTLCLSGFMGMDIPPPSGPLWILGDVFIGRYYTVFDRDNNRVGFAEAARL
pKi: −log10 of the molar value.
Test Readout: pKi

Q: Complete the entry with pKi for `Cc1nc(COC(=O)N[C@@H](CS(C)(=O)=O)C(=O)N[C@H](CC(C)C)[C@@H](O)C[C@@H](C)C(=O)N[C@@H](C(=O)NCC(C)C)C(C)C)c(C)s1`
Ans: 6.00 to 7.00

Q: Retrieve pKi measured for `Cc1csc(COC(=O)N[C@@H](CS(C)(=O)=O)C(=O)N[C@H](Cc2ccccc2)[C@@H](O)C[C@@H](C)C(=O)N[C@@H](C(=O)NCC(C)C)C(C)C)n1` and print it.
Ans: > 7.00

Q: Give a short answer stating reported pKi for `COCS(=O)(=O)C[C@H](NC(=O)OCc1nc(C)cs1)C(=O)N[C@H](CC(C)C)[C@@H](O)C[C@@H](C)C(=O)N[C@@H](C(=O)NCC(C)C)C1CCCCC1` .
Ans: 6.00 to 7.00

Q: Look up and state reported pKi for Cc1csc(CC(C)C(=O)N[C@@H](CS(C)(=O)=O)C(=O)N[C@H](CC(C)C)[C@@H](O)C[C@@H](C)C(=O)N[C@@H](C(=O)NCC(C)C)C(C)C)n1 (some centres unmarked)
Ans: 6.00 to 7.00

Q: Let me know recorded pKi for `CSC[C@H](NC(=O)CCn1nc(C)cc1C)C(=O)N[C@H](CC(C)C)[C@@H](O)C[C@@H](C)C(=O)N[C@@H](C(=O)NCC(C)C)C(C)C` , thanks.
Ans: > 7.00

Q: State, in one line, measured pKi of `CSC[C@H](NC(=O)OCc1nc(C)cs1)C(=O)N[C@H](CC(C)C)[C@@H](O)C[C@@H](C)C(=O)N[C@H](CC(C)C)C(=O)NC(C)C`
Ans: > 7.00

---
Q: Look up and report measured pKi for this entry: `Cc1nc(COC(=O)N[C@@H](CS(C)(=O)=O)C(=O)N[C@H](CC(C)C)[C@@H](O)C[C@@H](C)C(=O)N[C@@H](C(=O)O)C(C)C)c(C)o1`
Ans: < 6.00

###

molecular target: Cathepsin D (Homo sapiens, UniProt P07339); test: Inhibition of cathepsin D activity (substrate peptide […], MALDI-TOF); format: biochemical; conditions: pH 4.1, 37 degrees C., substrate NH3-[…]-CO2, MALDI-TOF; read-out: Cath D Ki
Test Readout: Ki

Q: Indicate its recorded Ki; the compound in question is `CCc1nc(COC(=O)N[C@@H](CS(C)(=O)=O)C(=O)N[C@H](CC(C)C)[C@@H](O)C[C@@H](C)C(=O)N[C@@H](C(=O)NCC(C)C)C(C)C)c(C)o1`
Ans: 0.1 to 1 µM

Q: Return Ki (reported value) for this compound: `Cc1nc(COC(=O)N[C@@H](CS(C)(=O)=O)C(=O)N[C@H](CC(C)C)[C@@H](O)C[C@@H](C)C(=O)N[C@@H](C(=O)NCC(C)C)C(C)C)no1`
Ans: 0.1 to 1 µM

Q: Give reported Ki value for `Cc1nc(COC(=O)N[C@@H](CS(C)(=O)=O)C(=O)N[C@H](CC(C)C)[C@@H](O)C[C@@H](C)C(=O)N[C@@H](C(=O)NCc2ccncc2)C(C)C)c(C)o1`
Ans: 0.1 to 1 µM

Q: Using known records, supply Ki for `CC(C)CNC(=O)[C@H](NC(=O)[C@H](C)C[C@H](O)[C@@H](CC(C)C)NC(=O)[C@H](CS(C)(=O)=O)NC(=O)OCc1ccn(C)n1)C(C)C`
Ans: 0.1 to 1 µM

Q: Check the records and state Ki for `COCSC[C@H](NC(=O)OCc1nc(C)cs1)C(=O)N[C@H](CC(C)C)[C@@H](O)C[C@@H](C)C(=O)N[C@@H](C(=O)NCC(C)C)C(C)C`
Ans: < 0.1 µM

More entries:
Q: Provide Ki value for the following compound: `CSC[C@H](NC(=O)OCc1nc(C)oc1C)C(=O)N[C@H](CC(C)C)[C@@H](O)C[C@@H](C)C(=O)N[C@@H](C(=O)OCc1ccccc1)C(C)C`
Ans: 0.1 to 1 µM

Q: Report Ki for `Cc1nc(COC(=O)N[C@@H](CS(C)(=O)=O)C(=O)N[C@H](Cc2cc(F)cc(F)c2)[C@@H](O)C[C@@H](C)C(=O)N[C@@H](C(=O)NCC(C)C)C(C)C)c(C)o1`
Ans: < 0.1 µM

Q: Respond only with Ki recorded for `COCS(=O)(=O)C[C@H](NC(=O)CCn1nc(C)cc1C)C(=O)N[C@H](CC(C)C)[C@@H](O)C[C@@H](C)C(=O)N[C@@H](C(=O)NCC(C)C)C(C)C`
Ans: 0.1 to 1 µM

Q: Quickly give me recorded Ki for `CSC[C@H](NC(=O)OCc1nc(C)cs1)C(=O)N[C@H](Cc1ccccc1)[C@@H](O)C[C@@H](C)C(=O)N[C@@H](C(=O)NCC(C)C)C(C)C`
Ans: < 0.1 µM

Q: Given the compound `Cc1cc(C)n(CCC(=O)N[C@@H](CS(C)(=O)=O)C(=O)N[C@@H](CC(C)C)[C@@H](O)C[C@@H](C)C(=O)N[C@@H](C(=O)NCC(C)C)C(C)C)n1` , write its reported Ki.
Ans: 0.1 to 1 µM

Q: // Input: CSC[C@H](NC(=O)CC(C)n1nc(C)cc1C)C(=O)N[C@@H](CC(C)C)[C@@H](O)C[C@@H](C)C(=O)N[C@H](C(=O)NCC(C)C)C(C)C (stereo partly drawn) . Output its Ki only.
Ans: < 0.1 µM
